- System Tested: Alpha-synuclein (Homo sapiens)
- Protocol Text: Inhibition of alpha alpha-synuclein (unknown origin) fibril aggregation assessed as reduction in TH-T fluorescent signal at 100 uM measured after 5 to 40 hrs by ThT fluorescence assay
- Condition Description: time 5-40 hrs
The source made the active and inactive calls. No cut-off for these calls is given here.
Quantity Kind: inhibition

-- ask Find the recorded inhibition belonging to "Cn1nnnc1SCc1ccccc1[N+](=O)[O-]" and report it.
-- reply inactive

-- ask Find the recorded inhibition belonging to "O=C(COc1ccccc1)Nc1c([N+](=O)[O-])cc(C(F)(F)F)cc1[N+](=O)[O-]" and report it.
-- reply inactive

-- ask Find the recorded inhibition belonging to "O=[N+]([O-])c1cc(C(F)(F)F)cc([N+](=O)[O-])c1NCCCO" and report it.
-- reply inactive

-- ask Find the recorded inhibition belonging to "O=[N+]([O-])c1cc(C(F)(F)F)cc([N+](=O)[O-])c1Sc1c(Cl)c(Cl)nc(Cl)c1Cl" and report it.
-- reply inactive

-- ask Find the recorded inhibition belonging to "Cc1cc(C)nc(Sc2c([N+](=O)[O-])cc(C(F)(F)F)cc2[N+](=O)[O-])n1" and report it.
-- reply inactive

-- ask Find the recorded inhibition belonging to "Cn1cnnc1SCc1ccc(C(F)(F)F)cc1" and report it.
-- reply inactive

-- ask Find the recorded inhibition belonging to "Cc1cc(C)c(Nc2c([N+](=O)[O-])cc(C(F)(F)F)cc2[N+](=O)[O-])c(C)c1" and report it.
-- reply inactive

Let us examine a further case.
-- ask Find the recorded inhibition belonging to "COc1cccc(Nc2c([N+](=O)[O-])cc(C(F)(F)F)cc2[N+](=O)[O-])c1" and report it.
-- reply inactive
